For 5-hydroxytryptamine receptor 1F (Homo sapiens), measured Ki is reported for the entries below.
Please give the number followed by its unit.

Some solved cases for reference:
- CN1CCC(c2noc3ccc(NC(=O)c4ccc(F)cc4)cc23)CC1: 17 nM
- CN1CCC(N2CCOc3ccc(NC(=O)c4ccc(F)cc4)cc32)CC1: 520 nM
- CN1CCC(C2CNc3ccc(NC(=O)c4ccc(F)cc4)cc32)CC1 (stereo in doubt; form 1): 8.6 nM
- CN1CCC(N2CCc3ccc(NC(=O)c4ccc(F)cc4)cc32)CC1: 4.8 nM
- CN1CCC(N2CNc3ccc(NC(=O)c4c(F)cc(F)cc4F)cc32)CC1: 17 nM

Would you be so kind as to report Ki for each listed record?
1. CN1CCC(c2n[nH]c3ccc(NC(=O)c4ccc(F)cc4)cc23)CC1
2. CN1CCC(n2ccc3ccc(NC(=O)c4ccc(F)cc4)cc32)CC1

Result:
["3.9 nM", "2.2 nM"]

###

species: Homo sapiens; assay: Ratio of binding affinity for 5-hydroxytryptamine 1A receptor to that of 5-hydroxytryptamine 1F receptor
EXPERIMENTAL_READOUT: Selectivity ratio
Numbers only.

Some solved cases for reference:
• CN1CCC(c2noc3ccc(NC(=O)c4ccc(F)cc4Cl)cc23)CC1 = 30
• CN1CCC(C2CNc3ccc(NC(=O)c4ccc(F)cc4)cc32)CC1 (stereo in doubt; 3) = 30

Would you be so kind as to report Selectivity ratio for each listed record?
1. CN1CCC(c2noc3ccc(NC(=O)c4ccc(F)cc4F)cc23)CC1
2. CN1CCC(N2CNc3ccc(NC(=O)c4ccc(F)cc4Cl)cc32)CC1
3. CN1CCC(N2CNc3ccc(NC(=O)c4c(F)cc(F)cc4F)cc32)CC1

Result:
10
70
50

Query: I'd like to know its Selectivity ratio. The compound in question is CN1CCC(c2noc3ccc(NC(=O)c4ccc(F)cc4)cc23)CC1
Result: 10

###

biological target: 5-hydroxytryptamine receptor 1F (Homo sapiens); test: Stimulation of [35S]GTP-gamma-S, binding to cloned human 5-hydroxytryptamine 1F receptor expressed in Mouse LM(tk-) cells
Sequence (P30939 whole entry): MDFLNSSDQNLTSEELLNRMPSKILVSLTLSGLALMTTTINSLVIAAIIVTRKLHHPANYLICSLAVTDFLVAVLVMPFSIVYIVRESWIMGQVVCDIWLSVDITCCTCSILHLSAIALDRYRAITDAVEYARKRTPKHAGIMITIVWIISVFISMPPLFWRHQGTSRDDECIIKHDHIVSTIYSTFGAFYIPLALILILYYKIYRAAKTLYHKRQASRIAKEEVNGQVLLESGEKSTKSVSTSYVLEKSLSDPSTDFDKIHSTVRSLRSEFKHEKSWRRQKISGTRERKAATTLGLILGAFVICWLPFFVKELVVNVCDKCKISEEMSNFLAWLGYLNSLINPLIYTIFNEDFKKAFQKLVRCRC
EXPERIMENTAL_READOUT: EC50
Please give the number followed by its unit.

Some solved cases for reference:
- CN1CCC(c2noc3ccc(NC(=O)c4ccc(F)cc4Cl)cc23)CC1: 140 nM
- CN1CCC(N2CNc3ccc(NC(=O)c4c(F)cc(F)cc4F)cc32)CC1: 50 nM
- CN1CCC(N2CNc3ccc(NC(=O)c4ccc(F)cc4Cl)cc32)CC1: 63 nM

Okay, next one:
Query: I'd like to know its EC50. The molecule in question is CN1CCC(c2noc3ccc(NC(=O)c4ccc(F)cc4F)cc23)CC1
Result: 470 nM

###

Assignment: determine reported Ki for the given compounds.
molecular target: 5-hydroxytryptamine receptor 1A (Homo sapiens)
Sequence (P08908 whole entry): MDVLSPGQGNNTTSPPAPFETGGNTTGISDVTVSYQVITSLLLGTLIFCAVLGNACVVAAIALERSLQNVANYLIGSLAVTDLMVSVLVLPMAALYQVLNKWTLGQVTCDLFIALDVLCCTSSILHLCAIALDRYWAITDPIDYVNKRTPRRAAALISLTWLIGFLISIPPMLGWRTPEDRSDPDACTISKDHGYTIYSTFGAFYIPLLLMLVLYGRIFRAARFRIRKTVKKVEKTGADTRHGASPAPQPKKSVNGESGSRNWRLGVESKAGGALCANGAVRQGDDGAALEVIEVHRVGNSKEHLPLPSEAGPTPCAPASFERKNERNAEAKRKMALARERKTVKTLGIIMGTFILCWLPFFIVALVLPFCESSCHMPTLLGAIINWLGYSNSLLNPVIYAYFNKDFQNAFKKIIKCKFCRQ
Give bare numbers, in µM.

Some solved cases for reference:
* CN1CCC(N2CCc3ccc(NC(=O)c4ccc(F)cc4)cc32)CC1 | 0.012
* CN1CCC(c2n[nH]c3ccc(NC(=O)c4ccc(F)cc4)cc23)CC1 | 0.87

Query: I'd like to know its Ki. The compound in question is CN1CCC(C2CNc3ccc(NC(=O)c4ccc(F)cc4)cc32)CC1 (stereo in doubt; 3)
Result: 0.24

###

molecular target: 5-hydroxytryptamine receptor 1D (Homo sapiens, UniProt P28221)
Sequence (P28221 whole entry): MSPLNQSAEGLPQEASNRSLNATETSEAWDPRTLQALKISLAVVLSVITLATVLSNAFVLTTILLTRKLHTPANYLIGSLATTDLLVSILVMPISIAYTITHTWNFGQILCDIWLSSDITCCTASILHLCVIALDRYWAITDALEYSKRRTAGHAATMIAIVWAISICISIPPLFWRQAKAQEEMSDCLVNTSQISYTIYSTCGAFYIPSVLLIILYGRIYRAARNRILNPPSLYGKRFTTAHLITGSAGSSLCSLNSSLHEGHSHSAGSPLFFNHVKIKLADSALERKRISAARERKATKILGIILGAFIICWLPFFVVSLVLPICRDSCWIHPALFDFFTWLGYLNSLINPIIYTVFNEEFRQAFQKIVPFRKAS
EXPERIMENTAL_READOUT: pKi
Give bare numbers, as −log10 of the molar value.

Query: I'd like to know its pKi. The compound in question is CN1CCC(N2CCc3ccc(NC(=O)c4ccc(F)cc4)cc32)CC1
Result: 6.68
